- target.entity: MecA (Staphylococcus aureus, UniProt Q7DHH4)
- Sequence (Q7DHH4 whole entry): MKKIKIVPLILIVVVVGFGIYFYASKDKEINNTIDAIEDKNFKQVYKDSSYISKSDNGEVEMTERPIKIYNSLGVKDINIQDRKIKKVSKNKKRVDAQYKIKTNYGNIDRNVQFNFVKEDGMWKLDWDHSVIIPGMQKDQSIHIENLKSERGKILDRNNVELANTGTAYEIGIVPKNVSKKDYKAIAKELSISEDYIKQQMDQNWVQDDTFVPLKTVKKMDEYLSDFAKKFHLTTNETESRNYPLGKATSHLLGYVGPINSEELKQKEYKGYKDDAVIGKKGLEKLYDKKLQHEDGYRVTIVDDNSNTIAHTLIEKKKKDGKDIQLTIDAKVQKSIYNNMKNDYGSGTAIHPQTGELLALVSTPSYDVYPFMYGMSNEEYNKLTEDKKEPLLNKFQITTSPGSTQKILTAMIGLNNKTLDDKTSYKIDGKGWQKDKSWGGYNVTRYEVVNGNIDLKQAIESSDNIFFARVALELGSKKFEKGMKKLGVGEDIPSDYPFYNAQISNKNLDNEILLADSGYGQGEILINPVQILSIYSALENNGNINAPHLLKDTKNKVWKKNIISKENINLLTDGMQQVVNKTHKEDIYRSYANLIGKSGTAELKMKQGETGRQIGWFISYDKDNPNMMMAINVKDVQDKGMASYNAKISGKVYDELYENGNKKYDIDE
- experiment.summary: Inhibition of methicillin-resistant Staphylococcus aureus COL PBP2a by competitive assay
measured.parameter: IC50 (µM)
Answers are plain numbers, in µM.

Nc1nc(/C(=N/O)C(=O)N[C@@H]2C(=O)N3C(C(=O)O)=C(/C=C4\CCN([C@@H]5CCNC5)C4=O)CS[C@H]23)ns1 ... 3.2

# ---- query compound ----
Incoming: Recorded IC50 of Cc1onc(-c2ccccc2)c1C(=O)N[C@@H]1C(=O)N2[C@@H]1SC(C)(C)[C@@H]2C(=O)O , please.
Outgoing: 710
